Catalogue of DC50 values
Target: STAT6 (Homo sapiens)
Construct: These cells express endogenous STAT6; host or cells: HeLa LgBiT clone 4.14
Sequence (P42226 1-847): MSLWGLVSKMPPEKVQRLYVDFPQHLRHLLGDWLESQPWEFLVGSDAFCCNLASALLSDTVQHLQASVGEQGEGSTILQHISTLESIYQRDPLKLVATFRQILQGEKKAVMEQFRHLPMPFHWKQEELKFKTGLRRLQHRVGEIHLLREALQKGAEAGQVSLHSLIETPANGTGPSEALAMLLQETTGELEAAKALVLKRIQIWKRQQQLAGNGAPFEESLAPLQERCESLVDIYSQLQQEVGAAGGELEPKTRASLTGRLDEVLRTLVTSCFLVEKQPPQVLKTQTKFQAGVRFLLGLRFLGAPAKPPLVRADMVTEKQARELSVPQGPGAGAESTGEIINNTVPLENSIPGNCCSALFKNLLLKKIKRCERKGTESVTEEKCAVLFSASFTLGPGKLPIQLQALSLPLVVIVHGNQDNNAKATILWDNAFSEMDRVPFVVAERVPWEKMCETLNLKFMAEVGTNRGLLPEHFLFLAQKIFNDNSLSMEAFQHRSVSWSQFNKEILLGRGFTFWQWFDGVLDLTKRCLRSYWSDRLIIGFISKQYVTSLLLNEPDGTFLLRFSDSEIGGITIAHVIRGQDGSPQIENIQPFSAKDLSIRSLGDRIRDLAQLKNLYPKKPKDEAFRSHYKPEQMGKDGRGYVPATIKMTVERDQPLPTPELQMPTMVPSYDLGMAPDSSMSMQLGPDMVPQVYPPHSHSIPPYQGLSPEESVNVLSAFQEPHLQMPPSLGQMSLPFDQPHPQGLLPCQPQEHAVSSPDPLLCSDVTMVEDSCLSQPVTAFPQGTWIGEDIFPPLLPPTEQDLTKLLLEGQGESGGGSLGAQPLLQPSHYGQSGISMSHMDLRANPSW
Experiment: Stat6 Degrader Assay (HiBiT based, HeLa LgBiT clone 4.14)
Assay type: cell-based
Details: HeLa LgBiT clone 4.14 HiBiT-STAT6, 4-24 h incubation; values given for compounds with >80% Emax; geometric mean; read-out: STAT6 degradation DC50
measured-property: DC50

>  <compound>
CNc1ccn(-c2ccnc3c2cc([C@H](C)N2CC=C(c4c(C)cc(C(=O)N5CCC(CN6CCN(c7ccc8c(c7)n(C)c(=O)n8C7CCC(=O)NC7=O)CC6)CC5)cc4F)CC2)n3C)c(=O)c1 (stereo partly shown) [Example 3u299]

>  <subject-of-test>
STAT6 (Homo sapiens)

>  <measured-property>
DC50

>  <observed-result>
0.9 nM

$$$$
>  <compound>
C[C@H]1CN(Cc2ccc3c(c2)C2(CC2)C(=O)N3C2CCC(=O)NC2=O)CCN1CC1CCN(C(=O)c2cc(F)c(C3CCN(Cc4cc5c(-n6cc(F)c(N)c(F)c6=O)ccnc5n4C)CC3)c(F)c2)CC1 (stereo partly shown) [Example 3u96]

>  <subject-of-test>
STAT6 (Homo sapiens)

>  <measured-property>
DC50

>  <observed-result>
4.1 nM

$$$$
>  <compound>
CNc1ccn(-c2ccnc3c2cc([C@H](C)N2CC=C(c4c(C)cc(C(=O)N5CCC(CN6CCN(Cc7ccc8c(c7)n(C7CC7)c(=O)n8[C@@H]7CCC(=O)NC7=O)C[C@@H]6C)CC5)cc4F)CC2)n3C)c(=O)c1 (single isomer, unassigned) [Example 3u113]

>  <subject-of-test>
STAT6 (Homo sapiens)

>  <measured-property>
DC50

>  <observed-result>
0.6 nM

$$$$
>  <compound>
CNc1ccn(-c2ccnc3c2cc([C@H](C)N2CC=C(c4c(F)cc(C(=O)N5CCC(CN6CCN(Cc7ccc8c(c7)n(C7CC7)c(=O)n8[C@H]7CCC(=O)NC7=O)C[C@@H]6C)CC5)cc4F)CC2)n3C)c(=O)c1 (single isomer, unassigned) [Example 3u211]

>  <subject-of-test>
STAT6 (Homo sapiens)

>  <measured-property>
DC50

>  <observed-result>
0.5 nM

$$$$
